Data origin: paper PMC5233613

Listing of entries alongside the reported dH.
- experimentalSystem: microtubule-associated protein light chain 3 beta (LC3B), wild type, full-length 1-125 (human, UniProt Q9GZQ8 1-120)
- testDetails: ITC; MicroCal iTC200, 25 °C; proteins 0.25 mmol/L and peptides 3 mmol/L, dialyzed against buffer B (20 mmol/L Tris-HCl, 200 mmol/L NaCl, 1 mmol/L EDTA, pH 8.0); single binding site model
- conditionSummary: both partners purified
Non-standard residues stand in square brackets, D forms with d. No end group written: not given here. pY = N[C@@H](Cc1ccc(OP(=O)(O)O)cc1)C(=O)O; pS = N[C@@H](COP(=O)(O)O)C(=O)O
Output spec: scalar in kcal/mol, unitless text.

Recorded dH, per entry:
| binder | endpointResult |
| --- | --- |
| DYESDDD[pS]YEVLDLTE (also called FUNDC1 pS17; FUNDC1 pS17 peptide; source: synthetic peptide (GL Biochem, Shanghai)) [FUNDC1 LIR peptide 10-25 phosphorylated at Ser17] | -3.51 |
| DYE[pS]DDDSYEVLDLTE (also called FUNDC1 pS13; pS13 peptide; source: synthetic peptide (GL Biochem, Shanghai)) [FUNDC1 LIR peptide 10-25 phosphorylated at Ser13] | -3.81 |
| DYESDDDSYEVLDLTE (FUNDC1 (Fun14 domain-containing protein 1), LIR and flanking residues 10-25; also called unphosphorylated FUNDC1 peptide; FUNDC1 peptide; source: synthetic peptide (GL Biochem, Shanghai)) [FUNDC1 LIR peptide 10-25, unphosphorylated] | -3.15 |

Let's switch to this binder now.
Looking up DYESDDDS[pY]EVLDLTE (also called FUNDC1 pY18; pY18 peptide; source: synthetic peptide (GL Biochem, Shanghai)) [FUNDC1 LIR peptide 10-25 phosphorylated at Tyr18] , I see its dH listed as -0.93
